Arterio-Venous Difference in Oxygen Partial Pressure at 5 min overview
System: dog heart in situ
Test: Antianginal activity: aortic-coronary sinus difference in oxygen (myocardial oxygen consumption) in anesthetized dogs
Type: in vivo
Details: 1 mg/kg i.v., 5 min
Counter-ions that a name gives are not always drawn.
Please give a number only; it is taken to be in mmHg.

Here is how some molecules turned out for Arterio-Venous Difference in Oxygen Partial Pressure at 5 min.
# Molecule, Test System, Recorded Measurement
rows = [
    ("O=[N+]([O-])OCC(CO[N+](=O)[O-])O[N+](=O)[O-] [Nitroglycerin, nitroglycerin, reference compound]", "dog heart in situ", 21),
    ("COc1ccc(NC2CCN3CCc4c(n(Cc5ccccc5)c5ccccc45)C3C2)cc1.Cl.Cl (stereo not shown)", "dog heart in situ", 44),
    ("Cc1cccc(NC2CCN3CCc4c(n(Cc5ccccc5)c5ccccc45)C3C2)c1.Cl.Cl (stereo not shown)", "dog heart in situ", 23),
    ("CC(C)NC1CCN2CCc3c(n(Cc4ccccc4)c4ccccc34)C2C1.Cl.Cl.O (stereo not shown)", "dog heart in situ", 22),
]

Requested field: Arterio-Venous Difference in Oxygen Partial Pressure at 5 min. Item: Cl.Cl.NC1CCN2CCc3c(n(Cc4ccccc4)c4ccccc34)C2C1.O (stereo not shown)
27

Would you mind doing O=[N+]([O-])c1cccc(NC2CCN3CCc4c(n(Cc5ccccc5)c5ccccc45)C3C2)c1 (stereo not shown) as well?
16

Would you mind doing NS(=O)(=O)c1ccc(NC2CCN3CCc4c(n(Cc5ccccc5)c5ccccc45)C3C2)cc1 (stereo not shown) [TR3718, hydrochloride] as well?
17

Would you mind doing Brc1cccc(NC2CCN3CCc4c(n(Cc5ccccc5)c5ccccc45)C3C2)c1.Cl (stereo not shown) as well?
18

Would you mind doing CC(=O)Nc1cccc(NC2CCN3CCc4c(n(Cc5ccccc5)c5ccccc45)C3C2)c1.O=C(O)C(=O)O (stereo not shown) as well?
27

Would you mind doing c1ccc(Cn2c3c(c4ccccc42)CCN2CCC(Nc4ccccc4)CC32)cc1 (stereo not shown) [TR2981, dihydrochloride] as well?
20
